target desc: Voltage-gated potassium channel subunit beta-2 (Rattus norvegicus)
procedure summary: enhancers of rat Kvbeta2 NADPH turnover – biochemical, NADPH fluorescence, primary screen (AID 623);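 also: fluorescence intensity change per second fitted from 20 to 320 s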
condition details: Recombinant KvBeta, NADPH fluorescence decrease slope, 10 min; at 10 µM; stronger effect = lower value
Answer each item with its documented NADPH fluorescence slope.
Note: the reply should be a number with no unit written.

Dear colleague, I am looking for the recorded NADPH fluorescence slope of the following compound: Cn1cccc1C1NC(=O)c2c(sc3c2CCC(C(C)(C)C)C3)N1 (stereo unspecified) -1.5e-05

Dear colleague, I am looking for the recorded NADPH fluorescence slope of the following compound: CCOC(=O)C1=C(C)NC(SC(C)=O)=NC1c1ccc(OC(C)=O)c(OC)c1 (stereo unspecified) -0.000113

Dear colleague, I am looking for the recorded NADPH fluorescence slope of the following compound: CCOC(=O)C1=C(C)Nc2ncnn2C1c1cc(OC)ccc1OC (stereo unspecified) -2.1e-05

Dear colleague, I am looking for the recorded NADPH fluorescence slope of the following compound: CCCn1c(=N)n(CC(=O)c2cccs2)c2ccccc21 -2.9e-05

Dear colleague, I am looking for the recorded NADPH fluorescence slope of the following compound: O=C(CCCCCn1c(=O)[nH]c2ccsc2c1=O)N1CCCCC1 -2.3e-05

Dear colleague, I am looking for the recorded NADPH fluorescence slope of the following compound: C=CCNC(=O)CNS(=O)(=O)c1ccc(F)cc1 1e-05

Dear colleague, I am looking for the recorded NADPH fluorescence slope of the following compound: Cn1cnnc1SCC(=O)NCc1cccc(C(F)(F)F)c1 3.5e-05

Dear colleague, I am looking for the recorded NADPH fluorescence slope of the following compound: CCN1CCCC1CNCc1ccc(Cl)cc1Cl (stereo unspecified) -1.4e-06

Dear colleague, I am looking for the recorded NADPH fluorescence slope of the following compound: CCCCC(CC)C(=O)Nc1ccccc1C#N (stereo unspecified) -2e-05

Dear colleague, I am looking for the recorded NADPH fluorescence slope of the following compound: COc1cc2c(cc1OC)CN(C(=O)COc1ccc(C#N)cc1)CC2 -4.9e-05

Dear colleague, I am looking for the recorded NADPH fluorescence slope of the following compound: Cc1cc(NS(=O)(=O)c2ccc(NC(=O)C(C)N3C(=O)c4ccccc4C3=O)cc2)nc(C)n1 (stereo unspecified) -5.8e-05

---

procedure summary: TLR3 IRF3 reporter activation blockers – cell-based, poly I:C stimulus, luciferase, 10K MLSCN set, primary screen (AID 602277)
condition details: HEK293-TLR3 RL24 IRF3 luciferase reporter, at 10 µM
The source made the active and inactive calls.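 How the source made its calls: active means inhibition of the reporter signal at or above 50%; inactive means inhibition below 50%.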
Thanks in advance; please answer with one of these: active, inactive

Hi, do you know how CCCCc1oc2ccccc2c1C(=O)c1cc(I)c(OCCN(CC)CC)c(I)c1 came out in this test? inactive

Hi, do you know how CCOC(=O)c1c(NC(=O)Cn2c(C)nc3ccccc32)sc2c1CCC2 came out in this test? inactive

Hi, do you know how CCOC(=O)CSC1=Nc2ccccc2C2=NC(CC(=O)NCc3ccc(OC)cc3)C(=O)N12 (configuration not stated) came out in this test? inactive

Hi, do you know how CCOC(=O)C1=C(C)NC(C)=C(C(=O)OC)C1c1cccc([N+](=O)[O-])c1 (configuration not stated) came out in this test? inactive

Hi, do you know how O=C(NCc1ccc(Cl)cc1)c1ccc(COCC(F)(F)F)o1 came out in this test? inactive

Hi, do you know how CC1(C)O[C@@H]2C[C@H]3[C@@H]4CCC5=CC(=O)C=C[C@]5(C)[C@@]4(F)[C@@H](O)C[C@]3(C)[C@]2(C(=O)CO)O1 came out in this test? inactive

Hi, do you know how Cc1cccc(-n2c(N)c(C(=O)N3CCN(C)CC3)sc2=S)c1 came out in this test? inactive

Hi, do you know how Cc1nc(C)c(C(=O)Nc2ccc(C)c(F)c2)o1 came out in this test? inactive

Hi, do you know how Cc1ccc(S(=O)(=O)N(C)c2ccc(OCC(=O)OCc3c(C)noc3C)cc2)cc1 came out in this test? inactive

Hi, do you know how Cc1cc(C)n2nc3nc(N4CCCCC4)nc(-c4ccco4)c3c2n1 came out in this test? inactive

Hi, do you know how CCOC(=O)c1sc2nc(C)cc(C)c2c1N came out in this test? inactive

Hi, do you know how CCCN1Cc2cccc(C(=O)NCc3cccs3)c2C1=O came out in this test? inactive

Hi, do you know how NS(=O)(=O)c1ccc(NCc2c(F)cccc2Cl)cc1 came out in this test? inactive

Hi, do you know how CCOC(=O)CSc1nnc(CNC(=O)c2ccc(OC)c(OC)c2)n1C came out in this test? inactive

Hi, do you know how Cc1cc(NC(=O)c2cnn3cccnc23)no1 came out in this test? inactive

Hi, do you know how O=C(CN1CCOCC1)N1CCN(C(=O)CN2CCOCC2)CC1 came out in this test? inactive

Hi, do you know how Cc1nnc(C)n1/N=C/c1cccc(Oc2ccccc2)c1 came out in this test? inactive

Hi, do you know how CC1CC(C)CN(CCCNC(=O)COc2cc(=O)n(C)c3ccccc23)C1 (configuration not stated) came out in this test? inactive

Hi, do you know how Cc1c(C(=O)OC(C)C)[nH]c2c1C(=O)CCC2 came out in this test? inactive

Hi, do you know how CCN(CC)CC(=O)Nc1ccc(-c2nc3cc(NC(=O)CN(CC)CC)ccc3o2)cc1 came out in this test? active

Hi, do you know how O=C(CN1C(=O)c2cccc3cccc1c23)NCC1CCCO1 (configuration not stated) came out in this test? inactive

Hi, do you know how CN(CC(=O)Nc1ccccc1Cl)C(=O)COC(=O)CNC(=O)c1ccc(Br)o1 came out in this test? inactive
